test: Cytotoxicity (dead-cell protease, Mitochondrial ToxGlo) in differentiated H9c2 cells; type: cell-based; details: rat, differentiated H9c2 cells, 6 h exposure, read-out: cytotoxicity EC50 (bis-AAF-R110 dead-cell protease fluorescence)
ENDPOINT NAME: EC50 at 6 h (nM)
# number only, unit nM dropped from output

Q: // returns reported EC50 at 6 h for input CCCCc1oc2ccc(NS(C)(=O)=O)cc2c1C(=O)c1ccc(OCCCN(CCCC)CCCC)cc1.Cl
Result: 1210
